# assayTarget: EcSecA (Escherichia coli, UniProt P10408)
# Sequence (P10408 whole entry): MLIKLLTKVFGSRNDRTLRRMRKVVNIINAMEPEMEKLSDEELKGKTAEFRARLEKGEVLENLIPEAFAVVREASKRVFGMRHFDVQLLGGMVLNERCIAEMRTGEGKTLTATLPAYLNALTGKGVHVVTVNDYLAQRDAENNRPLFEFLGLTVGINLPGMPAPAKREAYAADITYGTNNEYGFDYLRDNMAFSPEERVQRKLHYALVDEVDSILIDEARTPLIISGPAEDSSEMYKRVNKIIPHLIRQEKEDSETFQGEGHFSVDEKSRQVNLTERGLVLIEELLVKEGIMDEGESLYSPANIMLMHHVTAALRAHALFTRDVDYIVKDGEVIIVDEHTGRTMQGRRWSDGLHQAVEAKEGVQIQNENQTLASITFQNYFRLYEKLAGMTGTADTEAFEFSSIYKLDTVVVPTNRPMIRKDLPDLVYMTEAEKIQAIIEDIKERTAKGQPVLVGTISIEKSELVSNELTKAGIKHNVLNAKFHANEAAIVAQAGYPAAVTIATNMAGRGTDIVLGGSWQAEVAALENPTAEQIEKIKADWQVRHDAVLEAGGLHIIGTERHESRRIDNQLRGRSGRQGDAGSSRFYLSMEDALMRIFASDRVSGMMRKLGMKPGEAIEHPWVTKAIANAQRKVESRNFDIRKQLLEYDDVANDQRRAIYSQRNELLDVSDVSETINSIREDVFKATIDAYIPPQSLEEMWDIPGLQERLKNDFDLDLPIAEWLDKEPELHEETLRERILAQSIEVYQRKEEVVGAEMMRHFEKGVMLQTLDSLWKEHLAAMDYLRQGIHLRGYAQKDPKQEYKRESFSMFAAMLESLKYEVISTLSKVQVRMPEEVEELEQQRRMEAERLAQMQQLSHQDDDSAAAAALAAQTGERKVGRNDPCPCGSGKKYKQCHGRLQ
# procedureText: In vitro translocation activity with SecA-liposomes
# Assay type: biochemical, E. coli
# recordedConditions: reconstituted SecA-only liposomes, proOmpA, immunoblots
Can you tell me pIC50 for the items I'm about to list?
Give bare numbers, as −log10 of the molar value.

In [3]: df
Out[3]:
                                   compound  reportedmetric  measurednumber
0  FC(F)(F)c1cc(-c2nnc(Sc3cc(Cl)nc(Sc4ccccc4)n3)[nH]2)cc(C(F)(F)F)c1 [Compound 12a]           pIC50            5.32

// next entry
Enter recorded pIC50 with EcSecA (Escherichia coli, UniProt P10408) for CSc1nc(Cl)cc(Sc2nnc(-c3cc(C(F)(F)F)cc(C(F)(F)F)c3)[nH]2)n1 here. 5.70
